The reported numbers originate from PubChem BioAssay AID2305.

What pIC50 was measured for each of the following?
Tested on: P. falciparum 3D7 growth, pLDH absorbance
TEST DESCRIPTION: blood-stage malaria parasite growth potency – strain 3D7, dose response (AID 2305)
Give bare numbers, as −log10 of the molar value.

Below, 10 molecules whose answers are already recorded.
Cc1cc(NCC2CCN(CC3CCCCC3)C2)nc(Nc2ccc(Cl)cc2)n1 (stereo not given); 6.13
Cc1cc(OCC(=O)Nc2ccc(-c3nc4ccccc4[nH]3)cc2)cc(C)c1Cl; 6.13
CCN(CC)CCCC(C)Nc1cc(C)nc2cc(Cl)ccc12 (stereo not given); 6.14
COc1ccc(-c2cnc3[nH]cc(-c4ccncc4)c3c2)cc1OC; 6.89
CS(=O)(=O)c1ccc(Nc2ncc(-c3ccc(S(C)(=O)=O)cc3)c(OCC(F)(F)F)n2)cc1; 6.40
Cn1nc(-c2cccc(CNC3CCc4ccccc43)c2)c2cnc(NC3CCCC3)nc21 (stereo not given); 6.07
O=C(Nc1ccc(-c2ccccc2)cc1)Nc1cccc(Cn2ncc(N3CCNCC3)c(Cl)c2=O)c1; 6.34
Cc1cccc2[nH]c(-c3ccc(-c4ccc(CN5CCCC(N)C5)cc4)s3)nc12 (stereo not given); 6.42
COc1ccc(-c2ccc(NC(=O)c3ccc(Cl)cc3)cc2)cc1CN(C)CCO; 6.09
COc1ccc(-c2nc(NC(=O)CS(=O)(=O)c3ccc(OC)cc3)sc2C)cc1; 6.52

Give one value of pIC50 per listed molecule.
1. CC(CN(C)C)C(=O)Nc1ccc(-c2ccc(-c3nc4ccccc4[nH]3)s2)cc1 (stereo not given)
2. O=C(Nc1ccc(-c2ccc(-c3nc4ccc(C(F)(F)F)cc4[nH]3)cc2)cc1)Nc1ccc(F)c(F)c1F
3. O=C(NCCN1CCCC1)c1ccc(-c2ccc(-c3nc4ccc(C(F)(F)F)cc4[nH]3)s2)cc1
4. Cn1nc(-c2ccc(CNC3CCc4ccccc43)cc2)c2cnc(NCCN3CCCC3)nc21 (stereo not given)
5. CCn1c(-c2nonc2N)nc2c(Cl)ncc(O[C@H](CCN)c3ccccc3F)c21
6. COc1ccc(OC)c(Cc2c(C)nc3nc(N)nc(N)c3c2C)c1
7. COc1ccc2ccccc2c1CCCCN1CCN(CC(c2ccc(F)cc2)N2CCC2)CC1 (stereo not given)
8. O=C(Nc1ccc(C(F)(F)F)cc1)c1ccc(S(=O)(=O)NC2CCN(CC3CCCCC3)C2)cc1 (stereo not given)

1. 6.14
2. 6.66
3. 6.12
4. 5.87
5. 5.84
6. 6.07
7. 6.12
8. 6.14

Give measured pIC50 for every item shown.
1. CC(C)(C)OC(=O)N1CCC(C2CCN(C(=O)OC(C)(C)C)CC2)CC1
2. Fc1ccc2nc(-c3cccc(-c4ccc(CN5CCN(c6cnccn6)CC5)cc4)c3)[nH]c2c1

5.94
6.05

----------
System: P. falciparum 3D7 growth, pLDH absorbance
TEST DESCRIPTION: blood-stage malaria parasite growth potency – strain 3D7, dose response (AID 2305)
Assignment: determine reported pIC50 for the given compounds.
One number for each entry, as −log10 of the molar value.

Check out these entries, answers already filled in.
CN(c1ccccc1C(=O)Nc1ccccc1Oc1ccccc1)S(=O)(=O)c1ccccc1; 5.94
O=C(Nc1ccc2ccccc2c1)c1ccc(CN2CCC(Cc3ccccc3)CC2)cc1; 6.06
Cc1cc(NC2CCCC2)nc(Nc2ccccc2)n1; 6.00
C=CCOC(=O)N1CCC(CNCc2ccc(-c3cccc(-c4nc5ccccc5[nH]4)c3)cc2)C1 (stereo not given); 6.60
O=C(Nc1cccc(-c2ccc(-c3nc4ccc(C(F)(F)F)cc4[nH]3)s2)c1)c1cnc[nH]1; 5.95
CCCCN1CCN(CCCNc2c3ccccc3nc3ccccc23)CC1; 6.29
CC(C)NCc1cc(Nc2ccnc3cc(Cl)ccc23)ccc1O; 7.70
c1ccc(-c2ccc3c(Nc4ccc5[nH]ccc5c4)ccnc3c2)nc1; 6.03
CNC(=O)c1ccc2nc(C3CC3)n(CC3CCN(S(=O)(=O)c4cccc(Cl)c4)CC3)c2c1; 6.19
Nc1ncc(OC2CCCCC2)c(N)n1; 5.97

For each of the items listed, what is its pIC50?
1. COc1ccc(CNC2CCN(C)CC2)cc1-c1cccc(S(=O)(=O)NCc2ccccc2)c1
2. O=C1NC(c2ccccc2)C2(CCN(CC(O)COc3cccc4ncccc34)CC2)O1 (stereo not given)
3. COCCOc1cc(C)c(C2CCN(CCCCNC(=O)c3ccc(NC(=O)c4ccc(Cl)cc4)cc3)CC2)cc1C
4. c1ccc(-c2csc(Nc3nc4cc5c(cc4s3)OCO5)n2)nc1
5. CC(C)C[C@H](NC(=O)c1ccc(OCCN2CCOCC2)cc1)C(=O)N[C@H](/C=N/NC(=O)c1ccccc1)CCc1ccccc1
6. COC(=O)c1ccccc1N1CCN(CCCCNC(=O)c2ccc(NC(=O)c3cc(Cl)cc(Cl)c3)cc2)CC1

1: 6.14; 2: 6.13; 3: 6.02; 4: 6.24; 5: 7.22; 6: 6.25

----------
Could you please report measured IC50 for the items listed next?
Test system: P. falciparum 3D7 growth, pLDH absorbance
TEST DESCRIPTION: blood-stage malaria parasite growth potency – strain 3D7, dose response (AID 2305)

Solved entries:
O=C(NC1CCCCC1)N(Cc1cccc(-c2ccc(CNCCc3ccccc3)cc2)c1)C1CCN(Cc2ccccc2)CC1; 650 nM
CN(C)CCc1coc2ccc(C(=O)Nc3ccc(-c4ccc(O)cc4)cc3)cc12; 1080 nM
COc1cc2ccccc2c(OC)c1CCNCCCCNCCc1c(OC)cc2ccccc2c1OC; 890 nM
COc1ccc2nccc([C@@H](O)CNCCCN(C)CCOc3cc(F)cc(F)c3)c2c1; 790 nM

// recorded IC50 for COc1cc(C(C)C)nc2ccc(NC(=O)c3ccc(C(=O)Nc4ccc5nc(C(C)C)cc(OC)c5c4)cc3)cc12 : 580 nM

----------
Tested on: P. falciparum 3D7 growth, pLDH absorbance
TEST DESCRIPTION: blood-stage malaria parasite growth potency – strain 3D7, dose response (AID 2305)
QUANTITY: IC50 (nM)
Give bare numbers, in nM.

Below, 3 compounds whose answers are already recorded.
O=C(Nc1ccc(-c2cccc(-c3nc4ccc(F)cc4[nH]3)c2)cc1)c1cnn2cccnc12; 650
COC[C@H]1CCCN1Cc1ccc(-c2ccc(-c3nc4ccccc4[nH]3)s2)cc1; 1000
CCCN(CCCCCCNCCc1ccc(Cl)cc1)CCc1ccc(O)c(O)c1; 940

Need IC50 for each of these compounds.
1. NCC1CCCN1Cc1ccc(-c2cccc(-c3nc4ccc(C(F)(F)F)cc4[nH]3)c2)cc1 (stereo not given)
2. COc1ccc(-c2ccc(NC(=O)c3cccc(Cl)c3)cc2)cc1CN1CCN(C)CC1
3. CC(C)(C)OC(=O)n1cc(C2CCN(CCCC34CCCc5cccc(c53)NC4=O)CC2)c2ccncc21 (stereo not given)
4. N#Cc1ccc2c(c1)CCN(CCCn1c(-c3ccc4ccccc4c3)nc3ccncc31)CC2
5. CCc1ccc(NC(=O)c2ccc(CN3CCCN(CC4CCCCC4)CC3)cc2)cc1
6. O=C(NC(Nc1ccc([N+](=O)[O-])cc1)C(Cl)(Cl)Cl)c1cccc(Cl)c1 (stereo not given)
7. Cc1cc(N)nc2cc(CNCCc3ccccc3Br)ccc12

[830, 950, 880, 200, 710, 860, 130]

----------
Please respond with reported pIC50 for every item in the list.
System: P. falciparum 3D7 growth, pLDH absorbance
TEST DESCRIPTION: blood-stage malaria parasite growth potency – strain 3D7, dose response (AID 2305)
One number for each entry, as −log10 of the molar value.

As a guide, the following entries are already answered.
CC(C)N1CCN(c2ccc(OCCCN3CCN(c4cccc(Cl)c4Cl)CC3)c(C(F)(F)F)c2)CC1; 6.09
Cc1cc(NN=Cc2cccc(F)c2)c2cc(F)ccc2n1; 6.32
Oc1ccccc1CNCC(O)c1cccc(C(F)(F)F)c1 (stereo not given); 6.28
Nc1c2c(nc3cc(NC(=O)c4ccc([N+](=O)[O-])cc4)ccc13)CCCC2; 6.33
COc1cc(Br)ccc1N1CCN(CCCCNC(=O)c2ccc(NC(=O)c3ccc(Cl)cc3)cc2)CC1; 6.12

Provide reported pIC50 for each item, in the same order as listed.
1. COCCNCc1cccc(-c2ccc3c(Nc4ccc(Oc5cccnc5)cc4)ccnc3c2)c1
2. Cc1cc(N2CCOCC2)nc(Nc2ccc(NC(=O)c3cccc4ccccc34)cc2)n1
3. FC(F)(F)c1ccc2nccc(NN=Cc3ccccc3Cl)c2c1
4. CCCCNCc1ccc(-c2nc(CN(CCCN3CCN(C)CC3)C(=O)Nc3cccc(Cl)c3)cs2)cc1
5. CC(=O)c1ccc(NC(=O)C2c3ccccc3C(=O)N(CC(C)C)C2c2cccs2)cc1 (stereo not given)

1. 6.74
2. 5.89
3. 6.10
4. 6.01
5. 5.88

----------
Test system: P. falciparum 3D7 growth, pLDH absorbance
TEST DESCRIPTION: blood-stage malaria parasite growth potency – strain 3D7, dose response (AID 2305)
Give pIC50 for every item shown.
Answers are plain numbers, as −log10 of the molar value.

N#Cc1ccc2c(c1)CCN(CCC1CCC(NC(=O)Nc3ccnc4ccccc34)CC1)C2 (centres undefined); 6.42
CC(C)NCC(=O)Nc1cccc(C(=O)Nc2cccc(C(F)(F)F)c2)c1; 6.57
COc1c(Br)cc(Br)cc1-c1ccc(CN2C3CCCC2CCC3)[nH]1; 5.95
Oc1ccccc1CN1CCC(CCOC(c2ccccc2)c2ccc(Cl)cc2)CC1 (centres undefined); 6.13
Oc1cccc(Nc2nc(NCc3ccccc3)c3ccccc3n2)c1; 7.40
COc1cccc(-c2csc(C(=O)NCC3CCN(Cc4ccc(C(C)C)cc4)C3)c2)c1 (centres undefined); 5.86

Lab note: each compound below needs its pIC50 filled in.
1. Cc1ccnc2nc(C(=O)Nc3cc(Cl)ccc3N3CCOCC3)nn12
2. O=C(Nc1ccc(-c2csc3nccn23)cc1)c1ccc(Cl)cc1
3. O=C(NCc1ccc2c(c1)OCO2)c1nn(CCN2CCC(N3CCCC3)CC2)cc1-c1ccc(Cl)c(Cl)c1
4. Cc1cc(O)c(-c2cc(C(=O)Nc3cccnc3)[nH]n2)cc1C
5. CN1CCN(c2nsc3ccc(-c4ccc(NC(=O)Nc5cc(C(F)(F)F)ccc5F)cc4)cc23)CC1
6. O=C(CCCc1ccccc1)Nc1cccc(N2CCC(N3CCN(c4ccccc4O)CC3)CC2)c1
7. O=c1cc(NCCCNCc2cc(C(F)(F)F)ccc2F)[nH]c2ccccc12
8. Cc1sc2cc(Cl)cc(Cl)c2c1S(=O)(=O)Nc1ccc2nccc(N3CCNCC3)c2c1

5.91
6.24
6.03
6.11
6.62
6.10
6.08
6.92

Each compound below has a recorded value; state its pIC50.
1. C[C@H](Nc1nc(C(Oc2ccccc2)c2ccccc2)nc2[nH]ncc12)c1ccccc1 (some centres undefined)
2. Nc1nc(N)c(-c2ccccc2)c(=O)[nH]1
3. CN(C)CC1CCCN1Cc1ccccc1-c1cnn(C)c(=O)c1Oc1ccccc1F (centres undefined)
4. Nc1ncc(-c2ccc3nccc(-c4ccncc4)c3c2)cc1S(=O)(=O)N1CCCCC1
5. O=C(c1ccc([N+](=O)[O-])o1)N1CCN(c2ccccc2)CC1
6. O=C1c2ccccc2C(=O)N1c1ccc(S(=O)(=O)N2CCOCC2)cc1
7. CC(C)C[C@@H](C(=O)N[C@H](C(=O)Nc1nccs1)C(C)(C)C)[C@H](CCC(F)(F)F)N(O)C=O
8. Cc1ccccc1C1CCN(C2CCC(NC(=O)c3ccc(-c4cccs4)s3)CC2)CC1 (centres undefined)

[6.32, 6.00, 5.88, 6.24, 7.40, 5.90, 6.22, 5.99]

For every listed record, write down its pIC50.
1. Cc1ccc(-c2cc(C(=O)Nc3ccc(S(=O)(=O)N4CCOCC4)cc3)[nH]n2)c(O)c1C
2. O=C(NC1CCN(CC2(c3ccc(Cl)cc3)CCC2)CC1)c1cscn1

6.04
6.28
